Target: SDS-activated 20S proteasome from rabbit muscle (Oryctolagus cuniculus, UniProt G1SU71+G1T4Q9)
Assay: Kinetic assay: inhibition of the 20S proteasome
Assay type: biochemical
Settings: Table II; SDS-activated 20S proteasome from rabbit muscle, substrate Suc-LLVY-AMC
Measurement Label: Ki (nM)

CC(C)C[C@H](NC(=O)[C@H](Cc1ccc2ccccc2n1)NC(=O)N1CCOCC1)B(O)O :: 2.2
CC(C)CC(NC(=O)C(Cc1cccc2ccccc12)NC(=O)N1CCOCC1)B(O)O (centres unmarked) :: 2300
CC(=O)N[C@@H](Cc1cccnc1)C(=O)N[C@@H](CC(C)C)B(O)O :: 5.4
CC(C)C[C@H](NC(=O)[C@H](Cc1ccc(O)cc1)NC(=O)N1CCOCC1)B(O)O :: 0.51
CC(C)CC(NC(=O)C(Cc1ccc2ncccc2c1)NC(=O)N1CCOCC1)B(O)O (centres unmarked) :: 6

[1] CC(C)CC(NC(=O)C(CC(C)C)NC(=O)C(CC(C)C)NC(=O)OCc1ccccc1)B1OC2CC3CC(C3(C)C)C2(C)O1 (centres unmarked)
[2] CC(C)C[C@H](NC(=O)[C@H](Cc1ccc(F)cc1)NC(=O)c1cnccn1)B(O)O
Field: lower Ki | Options: 1 / 2 # answer = label of selected item
1

[P] CC(C)C[C@H](NC(=O)[C@H](Cc1cccc2ccccc12)NS(C)(=O)=O)B1OCCNCCO1
[Q] CC(C)C[C@H](NC(=O)[C@H](Cc1cccc2ccccc12)NC(=O)c1ccccc1)B(O)O
Field: lower Ki | Options: P / Q # answer = label of selected item
Q
(Q: 0.088 nM, P: 0.28 nM)

[A] CC(C)C[C@H](NC(=O)[C@H](Cc1ccccc1)NC(=O)NCc1ccccc1)B(O)O
[B] CC(C)C[C@H](NC(=O)[C@@H]1C[C@@H](O)CN1)B(O)O
[C] CC(C)C[C@H](NC(=O)[C@H](Cc1cccc2ccccc12)NC(=O)c1ccc2ccccc2n1)B(O)O
[D] CC(C)CC(NC(=O)C(CC(C)C)NC(=O)OCc1ccccc1)B1OC2CC3CC(C3(C)C)C2(C)O1 (centres unmarked)
Arrange the 4 compounds from largest to smallest Ki. Returns: the labels arranged in the requested order.
D, B, A, C
(D: 119 nM, B: 21 nM, A: 0.14 nM, C: 0.075 nM)

[I] CC(C)C[C@H](NC(=O)[C@H](Cc1ccccc1)NC(=O)c1ccccc1)B(O)O
[II] CC(C)C[C@H](NC(=O)[C@H](Cc1ccccn1)NC(=O)c1ccccc1)B(O)O
Field: lower Ki | Options: I / II # answer = label of selected item
I
